# test-name: UV-Vis absorption and fluorescence spectroscopy (spectral properties in aqueous media / PBS buffer)
# Format: physicochemical
# condition-info: aqueous media; absorption maximum
λabs (nm) by entry:

{"columns": ["compound", "λabs (nm)"],
 "data": [
  ["C#Cc1cccc(Nc2ncnc3ccc(NC(=O)CCNC(=O)c4ccc(C(=O)[O-])c(-c5c6ccc(=[N+](C)C)cc-6oc6cc(N(C)C)ccc56)c4)cc23)c1 [TMRErl(T)]", 563],
  ["CN(C)c1ccc2c(-c3cc(C(=O)NCc4ccc(COc5nc(N)nc6[nH]cnc56)cc4)ccc3C(=O)[O-])c3ccc(=[N+](C)C)cc-3oc2c1 [TMRSNAP]", 553],
  ["CN(C)c1ccc2c(c1)[Si](C)(C)C1=CC(=[N+](C)C)C=CC1=C2c1cc(C(=O)NCCCn2cc(-c3cccc(Nc4ncnc5ccccc45)c3)nn2)ccc1C(=O)[O-] [SiRErl(UnT)]", 654],
  ["Cc1cc(C(=O)NCc2ccc(COc3nc(N)nc4[nH]cnc34)cc2)ccc1-c1c2cc/c(=[N+](/C)CCCS(=O)(=O)[O-])cc-2oc2cc(N(C)C)ccc12 [OF550SNAP]", 556],
  ["Cc1cc(C(=O)O)ccc1-c1c2cc/c(=[N+](/C)CCCS(=O)(=O)[O-])cc-2oc2cc(N(C)C)ccc12 [OF550COOH]", 554],
  ["CN(C)c1ccc2c(-c3cc(C(=O)NCCCn4cc(-c5cccc(Nc6ncnc7ccccc67)c5)nn4)ccc3C(=O)[O-])c3ccc(=[N+](C)C)cc-3oc2c1 [TMRErl(UnT)]", 559],
  ["CN(C)c1ccc2c(-c3cc(C(=O)O)ccc3C(=O)[O-])c3ccc(=[N+](C)C)cc-3oc2c1 [TMRCOOH]", 550],
  ["CN(C)c1ccc2c(-c3ccccc3C(=O)[O-])c3ccc(=[N+](C)C)cc-3oc2c1 [TMR]", 549],
  ["CN(C)c1ccc2c(c1)[Si](C)(C)C1=CC(=[N+](C)C)C=CC1=C2c1cc(C(=O)NCCOCCOCCCCCCCl)ccc1C(=O)[O-] [SiRHALO]", 646],
  ["CN(C)c1ccc2c(c1)[Si](C)(C)C1=CC(=[N+](C)C)C=CC1=C2c1cc(C(=O)O)ccc1C(=O)[O-] [SiRCOOH]", 645],
  ["C#Cc1cccc(Nc2ncnc3ccc(NC(=O)CCNC(=O)c4ccc(C(=O)[O-])c(C5=C6C=CC(=[N+](C)C)C=C6[Si](C)(C)c6cc(N(C)C)ccc65)c4)cc23)c1 [SiRErl(T)]", 656],
  ["Cc1cc(C(=O)NCCCn2cc(-c3cccc(Nc4ncnc5ccccc45)c3)nn2)ccc1-c1c2cc/c(=[N+](/C)CCCS(=O)(=O)[O-])cc-2oc2cc(N(C)C)ccc12 [OF550Erl(UnT)]", 560]
]}
